I'd appreciate it if you could supply pKd values for the items below.
measurement-target: T1, RSV postfusion F (postF), subtype A (respiratory syncytial virus, subtype A, UniProt P03420 26-513)
T1 construct: also called F ΔFP; Postfusion subtype A
assay-remarks: BLI, IgG
Give bare numbers, as −log10 of the molar value.

Take each entry in turn and give its pKd.
1. ADI-14425 (antibody, V domains shown, also called Ab 91) VH: QVQLQESGPGLVKPSETLSLTCTVSGGSVRSGSYYWSWIRQPPGKALEWIGYIYYSGSTNYNPALESRVTISVDTSKNQFSLMLSSVTAADTAVYYCARSAEGLARLYYFDHWGQGTLVTVSS VL: QSVLIQPASVSGSPGQSITISCTGTSSDVGGYNYVSWYQQHPGKAPKLMIHDVSNRPSGVSNRFSGSKSGNTASLTISGLQAEDEADYYCSTYRSSNTLVVFGGGTKLTVL
2. ADI-21037 (antibody, V domains shown) VH: QVQLVQSGGGVVQPGRSLRLSCAASGFPFSSYAMHWVRQAPGKGLEWVAVIWYPGGEKYSADSVTGRFTISRDNSKNTLYLQMSSLRVEDTAVYYCARRSVGAFDYWGQGTLVTVSS VL: DIQMTQSPLSLPVTPGEPASISCRSSQSLLNSNGYNYLDWYLQKPGQSPQVLIYLGSHRASGVPDRFSGSGSGTDFTLRISRVEAEDVGVYYCMQAVQTPYTFGQGTKVEIK

Solution:
[9.13, 9.61]
